All values here come from the RNAGym collection of RNA variant scans (doi:10.7554/elife.80360).

B1: Hairpin Ribozyme (parent)
chain: GUCCUCUUUCACGUGCGCGUGAAAGAGAGAAGUGAACCAGAGAAACACACGUUGUGGUAUAUUACCUGGUA

variants of: B1; experiment: self-cleavage, relative activity (ratio to wild type); higher = more cleavage; co-transcriptional
Hi all, reminder that labels come from self-cleavage, split as band A (below 0.1), band B (0.1 to below 0.2), band C (0.2 or more)

For U7G G19A , which self-cleavage bin applies?
band C

For `C46G` , which self-cleavage bin applies?
band B

For A39G G54C , which self-cleavage bin applies?
band B

For A26G A36G , which self-cleavage bin applies?
band C

For G40U G56C , which self-cleavage bin applies?
band B

For C12A G54U , which self-cleavage bin applies?
band C

For C46U A61C , which self-cleavage bin applies?
band A

For A41G U53G , which self-cleavage bin applies?
band C

For G1A U53C , which self-cleavage bin applies?
band A
